# System: MCF7 breast
# Protocol Notes: NCI tumour cell line growth inhibition, 48 h; in the data active = GI50 below about 0.43 µM; inactive = the rest
Outcome codes: active, inactive

1. NC(=O)CC1(O)C=C(Br)C(=O)C(Br)=C1 ... inactive
2. Nc1nnnc2nc[nH]c12 ... inactive
3. O=C(Nc1ccc(-n2ccc3c(NC(=O)c4ccccc4)nccc32)cc1)Nc1cccc(C(F)(F)F)c1 ... inactive
4. Cc1nc(-c2cnc(NC(C)C)n(C)c2=O)ccc1Oc1ccnc(-c2cnn(C)c2)c1 ... inactive
5. Cc1ccc(NC(=O)Nc2c(Cl)cccc2Cl)cn1 ... inactive
6. CCOc1ccc2c(c1)CN(Cc1ccc(Cl)cc1)CO2 ... inactive
7. C[C@@H](NC(=O)c1ncnc(N)c1Cl)c1ncc(C(=O)Nc2cc(C(F)(F)F)c(Cl)cn2)s1 ... inactive
8. COc1ccc2nc(-c3ccccc3)cc(Nc3cccc(C(C)=O)c3)c2c1 ... inactive
9. N#Cc1ccccc1C#C/C=C\C#Cc1ccccc1N ... inactive
10. COc1ccc2nc3cc([N+](=O)[O-])ccc3c(NNc3ccccc3)c2c1 ... inactive
11. COc1cc(/C=C/C(=O)/C=C/c2cc3ccc(Cl)cc3n(Cc3ccccc3)c2=O)ccc1O ... active
12. OCc1ccc(N2CCc3cc(F)ccc3C2)cc1Cl ... active
13. COc1ccccc1/C=C/C1=C(C)CCC(c2ccccc2OC)C1C (centres undefined) ... active
14. O=C1c2cccnc2C(=O)c2c1c(C(=O)NCCn1ccnc1)c1ccccn21 ... inactive
